Give log10 of IC50 for every item shown.
ASSAYED_TARGET: Beta-2 adrenergic receptor (Homo sapiens)
Sequence (P07550 whole entry): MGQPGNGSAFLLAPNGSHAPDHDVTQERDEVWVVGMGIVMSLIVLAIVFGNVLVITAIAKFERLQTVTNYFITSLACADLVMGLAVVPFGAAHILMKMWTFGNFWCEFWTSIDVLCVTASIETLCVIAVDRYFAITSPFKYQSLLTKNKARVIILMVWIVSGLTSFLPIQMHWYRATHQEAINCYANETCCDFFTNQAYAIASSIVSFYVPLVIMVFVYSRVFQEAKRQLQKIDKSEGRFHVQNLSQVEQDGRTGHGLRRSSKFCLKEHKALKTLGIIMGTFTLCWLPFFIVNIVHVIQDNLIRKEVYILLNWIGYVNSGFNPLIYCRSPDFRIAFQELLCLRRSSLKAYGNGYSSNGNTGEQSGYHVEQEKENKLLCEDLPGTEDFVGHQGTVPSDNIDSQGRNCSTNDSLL
TEST_METHOD_NOTES: Binding affinity to recombinant human beta-2 adrenergic receptor prepared from CHO cells in the presence of [125I]iodocyanopindolol
Heads up, the numbers here are log10 of IC50 in µM units.

Ask | Please indicate log10 of IC50 recorded for "O=S(=O)(Nc1ccc(CCNC[C@H](O)c2cccnc2)cc1)c1ccc(-c2nc(COc3ccc(F)cc3)no2)cc1"
Reply | 0.88

Ask | Please indicate log10 of IC50 recorded for "O=S(=O)(Nc1ccc(CCNC[C@H](O)c2cccnc2)cc1)c1ccc(-c2nc(Cc3ccc(F)cc3)no2)cc1"
Reply | 0.60

Ask | Please indicate log10 of IC50 recorded for "O=S(=O)(Nc1ccc(CCNC[C@H](O)c2cccnc2)cc1)c1ccc(-c2noc(Cc3ccc4ccccc4c3)n2)cc1"
Reply | 0.18

Ask | Please indicate log10 of IC50 recorded for "O=S(=O)(Nc1ccc(CCNC[C@H](O)c2cccnc2)cc1)c1ccc(-c2noc(COc3ccc(OC(F)(F)F)cc3)n2)cc1"
Reply | 0.70

Ask | Please indicate log10 of IC50 recorded for "CC(=O)Nc1ccc(OCc2nc(-c3ccc(S(=O)(=O)Nc4ccc(CCNC[C@H](O)c5cccnc5)cc4)cc3)no2)cc1"
Reply | 0.98

Ask | Please indicate log10 of IC50 recorded for "O=S(=O)(Nc1ccc(CCNC[C@H](O)c2cccnc2)cc1)c1ccc(-c2nc(Cc3ccc(F)c(F)c3)no2)cc1"
Reply | 0.40

Ask | Please indicate log10 of IC50 recorded for "O=S(=O)(Nc1ccc(CCNC[C@H](O)c2cccnc2)cc1)c1ccc(-c2noc(Cc3ccc(-c4ccccn4)cc3)n2)cc1"
Reply | 0.65

Ask | Please indicate log10 of IC50 recorded for "CC(=O)Nc1ccc(Cc2nc(-c3ccc(S(=O)(=O)Nc4ccc(CCNC[C@H](O)c5cccnc5)cc4)cc3)no2)cc1"
Reply | 0.70

Ask | Please indicate log10 of IC50 recorded for "O=S(=O)(Nc1ccc(CCNC[C@H](O)c2cccnc2)cc1)c1ccc(-c2noc(Cc3cccc(OC(F)(F)F)c3)n2)cc1"
Reply | 0.74

Ask | Please indicate log10 of IC50 recorded for CNC(=O)NC(c1ccc(F)cc1)c1nc(-c2ccc(S(=O)(=O)Nc3ccc(CCNC[C@H](O)c4cccnc4)cc3)cc2)no1 (some centres undefined)
Reply | 0.18

Ask | Please indicate log10 of IC50 recorded for "O=S(=O)(Nc1ccc(CCNC[C@H](O)c2cccnc2)cc1)c1ccc(-c2noc(COc3ccc4ccccc4c3)n2)cc1"
Reply | 1.95

Ask | Please indicate log10 of IC50 recorded for NC(c1ccc(F)cc1)c1nc(-c2ccc(S(=O)(=O)Nc3ccc(CCNC[C@H](O)c4cccnc4)cc3)cc2)no1 (some centres undefined)
Reply | 0.30

Ask | Please indicate log10 of IC50 recorded for CS(=O)(=O)NC(c1ccc(F)cc1)c1nc(-c2ccc(S(=O)(=O)Nc3ccc(CCNC[C@H](O)c4cccnc4)cc3)cc2)no1 (some centres undefined)
Reply | 0.40

Ask | Please indicate log10 of IC50 recorded for "O=S(=O)(Nc1ccc(CCNC[C@H](O)c2cccnc2)cc1)c1ccc(-c2noc(Cc3ccc(F)cc3)n2)cc1"
Reply | 0.22

Ask | Please indicate log10 of IC50 recorded for "O=C(c1ccc(F)cc1)c1nc(-c2ccc(S(=O)(=O)Nc3ccc(CCNC[C@H](O)c4cccnc4)cc3)cc2)no1"
Reply | 1.18

Ask | Please indicate log10 of IC50 recorded for "CSc1ccc(Cc2nc(-c3ccc(S(=O)(=O)Nc4ccc(CCNC[C@H](O)c5cccnc5)cc4)cc3)no2)cc1"
Reply | 0.98

Ask | Please indicate log10 of IC50 recorded for "O=S(=O)(Nc1ccc(CCNC[C@H](O)c2cccnc2)cc1)c1ccc(-c2noc(COc3ccccc3O)n2)cc1"
Reply | 0.40

Ask | Please indicate log10 of IC50 recorded for "O=S(=O)(Nc1ccc(CCNC[C@H](O)c2cccnc2)cc1)c1ccc(-c2noc(COc3ccc(F)cc3)n2)cc1"
Reply | -0.31

Ask | Please indicate log10 of IC50 recorded for "O=S(=O)(Nc1ccc(CCNC[C@H](O)c2cccnc2)cc1)c1ccc(-c2noc(Cc3cccc(F)c3)n2)cc1"
Reply | -0.16

Source listed as ChEMBL document CHEMBL1133209.
